Sourced from patent US20240182536A1

- TEST SYSTEM: T1, IL-18 binding protein (IL-18BP) (UniProt O95998 31-194); also: unit not given here
- T1 sequence (looked up): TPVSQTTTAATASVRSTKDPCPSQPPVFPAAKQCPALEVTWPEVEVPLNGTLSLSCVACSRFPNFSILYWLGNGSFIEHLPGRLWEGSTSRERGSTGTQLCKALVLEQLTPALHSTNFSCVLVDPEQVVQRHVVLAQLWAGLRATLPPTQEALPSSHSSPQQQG
- PROCEDURE SUMMARY: cell-based or functional assay
REPORTED PROPERTY: Activity, +100 nM BP, DF-25000004
One number for each entry.

Record excerpt, results attached:
1. IL-18 variant E6N, D54N, S55N, N91H, R104P (ligand) YFGKLNSKLSVIRNLNDQVLFIDQGNRPLFEDMTDSDMRDNAPRTIFIISMYKNNQPRGMAVTISVKSEKISTLSSENKIISFKEMNPPDHIKDTKSDIIFFQPSVPGHDNKMQFESSSYEGYFLASEKERDLFKLILKKEDELGDRSIMFTVQNED = 0.09
2. IL-18 variant E6T, D54P, S55K, R104S (ligand) YFGKLTSKLSVIRNLNDQVLFIDQGNRPLFEDMTDSDMRDNAPRTIFIISMYKPKQPRGMAVTISVKSEKISTLSSENKIISFKEMNPPDNIKDTKSDIIFFQSSVPGHDNKMQFESSSYEGYFLASEKERDLFKLILKKEDELGDRSIMFTVQNED = 0.08
3. IL-18 variant G3L, E6Y, D54T, T63S, N91Y, R104Q (ligand) YFLKLYSKLSVIRNLNDQVLFIDQGNRPLFEDMTDSDMRDNAPRTIFIISMYKTSQPRGMAVSISVKSEKISTLSSENKIISFKEMNPPDYIKDTKSDIIFFQQSVPGHDNKMQFESSSYEGYFLASEKERDLFKLILKKEDELGDRSIMFTVQNED = 1.45
4. IL-18 variant G3Q, E6N, D54Y, S55P, T63S, N91S, R104H (ligand) YFQKLNSKLSVIRNLNDQVLFIDQGNRPLFEDMTDSDMRDNAPRTIFIISMYKYPQPRGMAVSISVKSEKISTLSSENKIISFKEMNPPDSIKDTKSDIIFFQHSVPGHDNKMQFESSSYEGYFLASEKERDLFKLILKKEDELGDRSIMFTVQNED = 0.14

List Activity, +100 nM BP, DF-25000004 for every entry below, keeping the order given.
1. IL-18 variant E6D, D54T, S55W, T63S, N91S, R104T (ligand) YFGKLDSKLSVIRNLNDQVLFIDQGNRPLFEDMTDSDMRDNAPRTIFIISMYKTWQPRGMAVSISVKSEKISTLSSENKIISFKEMNPPDSIKDTKSDIIFFQTSVPGHDNKMQFESSSYEGYFLASEKERDLFKLILKKEDELGDRSIMFTVQNED
2. IL-18 variant G3R, E6D, D54A, S55Q, T63S, N91K, R104P (ligand) YFRKLDSKLSVIRNLNDQVLFIDQGNRPLFEDMTDSDMRDNAPRTIFIISMYKAQQPRGMAVSISVKSEKISTLSSENKIISFKEMNPPDKIKDTKSDIIFFQPSVPGHDNKMQFESSSYEGYFLASEKERDLFKLILKKEDELGDRSIMFTVQNED

1: 0.1; 2: 0.07
